- Species: Rattus norvegicus
- Experiment Description: Open TG-GATES - Regimen: Daily Repeat
- Format: toxicity, organism-based, Sprague-Dawley
- Design: regimen Daily Repeat, gender Male, age 6 weeks
- Assay Context: in vivo, po, 300 mg/kg, […], tissue Plasma, route gavage, dose level Middle, time 28 day
Give ALP for every item shown.
Express it in IU/L; write the number only.

input: Please report the recorded ALP for COC1=CC(=O)C[C@@H](C)[C@]12Oc1c(Cl)c(OC)cc(OC)c1C2=O .
output: 565.4

input: Next: NC(N)=Nc1nc(CSCCC(N)=NS(N)(=O)=O)cs1
output: 609.6

input: Next: CCOc1ccc(NC(=O)CC(C)O)cc1 (stereo not given)
output: 1081.4

input: Next: CCOC(=O)CCC(=O)O[C@H]1[C@H](O[C@@H]2[C@@H](C)[C@H](O[C@H]3C[C@@](C)(OC)[C@@H](O)[C@H](C)O3)[C@@H](C)C(=O)O[C@H](CC)[C@@](C)(O)[C@H](O)[C@@H](C)C(=O)[C@H](C)C[C@@]2(C)O)O[C@H](C)C[C@@H]1N(C)C [ERYTHROMYCIN ETHYLSUCCINATE]
output: 1061.2

input: Next: COc1ccc2[nH]c([S+]([O-])Cc3ncc(C)c(OC)c3C)nc2c1 (stereo not given)
output: 521.6

---

Give LIVER for every item shown.
- Organism: Rattus norvegicus
- Experiment Description: Open TG-GATES - Regimen: Single
- Format: toxicity, organism-based, Sprague-Dawley
- Design: regimen Single, gender Male, age 6 weeks
- Assay Context: in vivo, po, 10 mg/kg, 3 h, tissue Liver, route gavage, dose level Low
Report field: quantity (unit follows the number).

input: Please report the recorded LIVER for CC1=C(/C=C/C(C)=C/C=C/C(C)=C/CO)C(C)(C)CCC1 .
output: 9.3 g

input: Next: CC(C)OC(=O)C(C)(C)Oc1ccc(C(=O)c2ccc(Cl)cc2)cc1 [FENOFIBRATE]
output: 7.8 g

input: Next: CN(C)CCCN1c2ccccc2CCc2ccc(Cl)cc21
output: 10 g

input: Next: CN(C)CCN(Cc1cccs1)c1ccccn1
output: 8.1 g

input: Next: CN(C)CCCN1c2ccccc2CCc2ccccc21
output: 9.1 g

---

- Organism: Rattus norvegicus
- Experiment Description: Open TG-GATES - Regimen: Single
- Type: toxicity, organism-based, Sprague-Dawley
- Parameters: regimen Single, gender Male, age 6 weeks
- Assay Context: in vivo, po, 0 mg/kg, 6 h, tissue Blood, route gavage, dose level Control
Experimental Readout: PT (s)
Express it in s; write the number only.

input: Please report the recorded PT for CN(C)CCCN1c2ccccc2CCc2ccccc21 .
output: 15.8

input: Next: CN1C(=O)CN=C(c2ccccc2)c2cc(Cl)ccc21
output: 12.6

input: Next: NNC(=O)c1ccncc1
output: 12.3

input: Next: CCOC(=O)CCC(=O)O[C@H]1[C@H](O[C@@H]2[C@@H](C)[C@H](O[C@H]3C[C@@](C)(OC)[C@@H](O)[C@H](C)O3)[C@@H](C)C(=O)O[C@H](CC)[C@@](C)(O)[C@H](O)[C@@H](C)C(=O)[C@H](C)C[C@@]2(C)O)O[C@H](C)C[C@@H]1N(C)C [ERYTHROMYCIN ETHYLSUCCINATE]
output: 15.8

input: Next: CCCNC(=O)NS(=O)(=O)c1ccc(Cl)cc1 [CHLORPROPAMIDE]
output: 15.4
